All figures here come from patent US11952365B2.

biological target: 3CLpro (Severe acute respiratory syndrome coronavirus 2); experiment: SARS-CoV-2 3CLpro protease assay (duplex, SAMDI-MS); assay type: biochemical; design: For the duplex assay, 3CLpro and HRV3C was added; details: 3CLpro, 30 mins preincubation, class symbols; read-out: SARS-Cov-2 IC50
pIC50: −log10 of the molar value.
Quick reference: pIC50 of the listed items.

Example results:
[[record]]
compound = "Cc1ccc2[nH]c(C(=O)N3CCC4(CC4)C[C@H]3C(=O)N[C@@H](C[C@@H]3CCNC3=O)C(=O)C(=O)NC3CC3)cc2c1"
result = "> 7.70"

[[record]]
compound = "COc1cccc2[nH]c(C(=O)N3C[C@@H]4CCC[C@@H]4[C@H]3C(=O)NC(C[C@@H]3CCCNC3=O)C(=O)C(=O)NC3CC3)cc12 (some centres unmarked)"
result = "> 7.70"

[[record]]
compound = "COc1cccc2[nH]c(C(=O)N3C[C@H]4[C@@H]([C@H]3C(=O)N[C@@H](C[C@@H]3CCNC3=O)C(=O)C(N)=O)C4(C)C)cc12"
result = "> 7.70"


Problem: Recorded pIC50 of `N#C[C@H](C[C@@H]1CCNC1=O)NC(=O)[C@@H]1[C@H]2CCC[C@H]2CN1C(=O)c1nc2c(Cl)ccc(Cl)c2[nH]1` , please.
Result: 5.70 to 6.70

Problem: Record request: pIC50 value, item `O=C1NCC[C@H]1C[C@H](NC(=O)[C@@H]1[C@H]2CCC[C@H]2CN1C(=O)c1cc2c(Cl)cc(C(F)(F)F)cc2[nH]1)C(=O)CO`
Result: 6.70 to 7.70

Problem: Recorded pIC50 of `COc1cccc2[nH]c(C(=O)N3Cc4ccccc4[C@@H]3C(=O)N[C@@H](C[C@@H]3CCCNC3=O)C(=O)CO)cc12` , please.
Result: 4.70 to 5.70

Problem: If you can, please state the reported pIC50 value of COc1cccc2[nH]c(C(=O)N3C[C@@H]4CCC[C@@H]4[C@H]3C(=O)NC(C[C@@H]3CCNC3=O)C(=O)C(=O)NCc3ccccc3)cc12 (some centres unmarked) .
Result: 6.70 to 7.70

Problem: Quick one: pIC50 for `O=C1NCC[C@H]1C[C@H](NC(=O)[C@@H]1[C@H]2CCC[C@H]2CN1C(=O)c1cc2c(Cl)cc(Oc3ccccc3)cc2[nH]1)C(=O)CO` ?
Result: > 7.70

Problem: Request the reported pIC50 associated with `C=CC12CN(C(=O)c3cc4c(OC)cccc4[nH]3)C(C(=O)N[C@@H](C[C@@H]3CCNC3=O)C(=O)C(=O)NC3CC3)(C1)C2`
Result: 5.70 to 6.70

Problem: Which value of pIC50 has been reported for `COc1cccc2[nH]c(C(=O)N3C[C@@H]4CCC[C@@H]4[C@H]3C(=O)N[C@@H](C[C@@H]3CCNC3=O)C(=O)CO)cc12` in the records?
Result: > 7.70
